- ASSAY: folding enthalpy; higher = less favourable; fluorescence melt of hairpins on a sequencing array, two-state fit
- DETAILS: sodium 0.088 M
OBSERVED_PROPERTY: folding enthalpy (kcal/mol)

> print(dat)
                         polymer.sequence  observed.property  units.text  readout.number
 1  GTGGCTCGAAAGAGACAC (((.(((....))).)))   folding enthalpy    kcal/mol           -40.1
 2  GGTTGTGGAAACACAGCC ((.((((....)))).))   folding enthalpy    kcal/mol           -42.4
 3  GATCTAGGAAACTAGGTC ((.((((....)))).))   folding enthalpy    kcal/mol           -34.3
 4  GACCCGGGAAACTGGGTC (((((.(....).)))))   folding enthalpy    kcal/mol           -37.3
 5  GCCCTTCGAAAGAACGGC (((.(((....))).)))   folding enthalpy    kcal/mol           -29.7
 6  GCTCGCGAAAGCGCCAGC ((((((....)))..)))   folding enthalpy    kcal/mol           -8.57
 7    GAACCCGAAAGGGGTTC ((((((....))).)))   folding enthalpy    kcal/mol             -26
 8      GATCCGGGTCCGGATC ((((((....))))))   folding enthalpy    kcal/mol           -39.1
 9    GTCTGTCGAAAGACGAC (((.(((....))))))   folding enthalpy    kcal/mol           -28.6
10  GTCTAGGGAAACCTAGAC (((((((....)))))))   folding enthalpy    kcal/mol           -40.4
11  GGCACCGAAAGGTTTGCC ((((((....)))..)))   folding enthalpy    kcal/mol           -22.6
12  GGATTACGAAAGTATTCC (((.(((....))).)))   folding enthalpy    kcal/mol           -32.6
13      GCACAAGAAATTGTGC ((((((....))))))   folding enthalpy    kcal/mol             -36
14      GATCGGGTAGCCGATC ((((((....))))))   folding enthalpy    kcal/mol           -41.9
15    GATAACGAAAGTTGATC ((((((....))).)))   folding enthalpy    kcal/mol           -11.2
16      GATCGCAAGGGCGATC ((((((....))))))   folding enthalpy    kcal/mol           -29.3
17    GGCCACGAAAGTGCGCC ((((((....))).)))   folding enthalpy    kcal/mol           -32.8
18  GGATAGGGAAACTTATCC (((((.(....).)))))   folding enthalpy    kcal/mol           -30.3
19  GAGGATGGAAACATCTTC ((.((((....)))).))   folding enthalpy    kcal/mol           -27.1
20      GTTAGTGAAAACTAAC ((((((....))))))   folding enthalpy    kcal/mol           -33.4
21  GTAAGGCCGAAAGGCTAC (((..(((....))))))   folding enthalpy    kcal/mol           -9.55
22  GGTTCCGAAAGGACCACC ((((((....)))..)))   folding enthalpy    kcal/mol             -14
23  GAGGTTACGAAAGTACTC (((..(((....))))))   folding enthalpy    kcal/mol           -14.3
24  CGACGCGGAAACGCTTCG (((.(((....))).)))   folding enthalpy    kcal/mol           -33.6
25  GTGATGGGAAACCACCAC (((.(((....))).)))   folding enthalpy    kcal/mol           -29.7
26  GGAATACGAAAGTAATCC (((.(((....))).)))   folding enthalpy    kcal/mol           -28.8
27  GCTGGATCGAAAGATAGC (((..(((....))))))   folding enthalpy    kcal/mol             -21
28      GATCTGCGATCAGATC ((((((....))))))   folding enthalpy    kcal/mol           -33.9
29  GCTAACGAAAGTTAGAGC ((((((....)))..)))   folding enthalpy    kcal/mol           -16.1
30  GCGTTCGAAAGAAAGCGC ((((((....)))..)))   folding enthalpy    kcal/mol           -29.4
31  GTGTCTGGAAACGGACAC (((((.(....).)))))   folding enthalpy    kcal/mol           -41.3
32  GGGTAGGGAAACCTGCTC (.(.(((....))).).)   folding enthalpy    kcal/mol           -14.8
33          CGCATGAAAATGCG (((((....)))))   folding enthalpy    kcal/mol           -24.9
34  GTCGACGCGAAAGCGGAC (((..(((....))))))   folding enthalpy    kcal/mol           -12.8
35      GATCCTTGAAAGGATC ((((((....))))))   folding enthalpy    kcal/mol           -42.3
36  GCCAACACGAAAGTGGGC (((..(((....))))))   folding enthalpy    kcal/mol           -24.9
37  GCTCGTCGAAAGACTAGC (((.(((....))).)))   folding enthalpy    kcal/mol             -39
38    GGTCATCGAAAGATACC (((.(((....))))))   folding enthalpy    kcal/mol           -24.2
39          ACAATGAAAATTGT (((((....)))))   folding enthalpy    kcal/mol           -11.1
40  GCCATTGGAAACAACGGC (((.(((....))).)))   folding enthalpy    kcal/mol           -33.1
41  GACGCCGAAAGGCACGTC ((((((....)))..)))   folding enthalpy    kcal/mol           -13.4
42      CGCGGATCGCTCCGCG ((((((....))))))   folding enthalpy    kcal/mol           -28.6
43  GTCCGTGGAAACGCGGAC (((((.(....).)))))   folding enthalpy    kcal/mol           -39.8
44  CGTGGCGGAAACGCAACG (((.(((....))).)))   folding enthalpy    kcal/mol           -38.7
45              GCGAATGTTCGC ((((....))))   folding enthalpy    kcal/mol           -25.7
46      GATCGAAGTTTCGATC ((((((....))))))   folding enthalpy    kcal/mol           -44.8
47  GATCTCCGAAAGGAAATC (((.(((....))).)))   folding enthalpy    kcal/mol           -25.1
48  GTTAGTGGAAACACTAGC (.(((((....))))).)   folding enthalpy    kcal/mol           -21.1
49  GCTACGCGAAAGCTTTGC ((.(.((....)).).))   folding enthalpy    kcal/mol             -13
50        GATCCCGACGGGATC ((((((...))))))   folding enthalpy    kcal/mol           -28.4

Recorded values, source the array DNA melting data of Ke et al. (doi:10.1101/2024.01.08.574731).
